Attribution: patent US20210363269A1

biological target: T1, human SIRP-α v1 D1 domain (human, UniProt P78324 31-149); assay: SPR, Langmuir fit
T1 construct: also called human v1
T1 sequence (P78324 31-149 limits assumed): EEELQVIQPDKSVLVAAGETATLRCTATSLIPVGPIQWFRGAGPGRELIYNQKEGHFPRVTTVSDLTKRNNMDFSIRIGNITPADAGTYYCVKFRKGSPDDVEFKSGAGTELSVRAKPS
QUANTITY NAME: log10(koff) (log10 of the value in s⁻¹)
A value of 2 here means koff of 100 in s⁻¹, since values are log10.

S149 (scFv, V domains shown, scFv-Fc format (VL-linker-VH on human IgG1 Fc)) VH: DVQLVESGGGVVRPGESLRLSCAASGFTFSNFAMNWVRQAPGEGLEWVSLISVTATTYYADSVKGRFTISRDNSKNTLYLQMNSLRAEDTAVYYCAKVTWNNLFDYWGLGTLVTVSS VL: EIVLTQSPGTLSLSPGERATLSCRASQPIDSYLAWYQQKPGQAPRLLIYNTVTRATGIPDRFSGSGSGTDFTLTINRLEPEDFAVYYCQHQYDWPPYIFGGGTKVEIK :: -2.38

Lookup result for S22 (scFv, V domains shown, also called clone 22) VH: DVQLVESGGGVVRPGESLRLSCAASGFTFSSYAMSWVRQAPGKGLEWLAGISAGGSDTYYIDSVKGRFTISRRQFQEQSLSPNEPALTAEDTAVYYCARETWNHLFDYWGLGTLVTVSS VL: ALTQPASVSANPGETVKITCSGGDYYSTYYGWYQQKSPGSAPVTVIHSDDKRPSDIPSRFSGSASGSAATLTIAGVRVEDEAVYFCGAYDGRTYINTFGAGTTLTVL ; measured log10(koff): -3.92

// S132 (scFv, V domains shown) VH: DVQLVESGGGVVRPGESLRLSCAASGFSFRSYAMNWVRQAPGEGLEWVSRINSGGGGTDYADSVKGRFTISRDNSKNTLYLQMNSLRAEDTAVYYCAKQYDWNSFFDYWGLGALVTVSS VL: ETVLTQSPATLSVSPGERATLSCRASQTVGSKLAWHQQKPGQAPRLLIYDASNRATGIPDRFSGSGSGTDFTLTISSPQTEDSAVYYCQQYYYWPPYRFGGGTKVEIK : log10(koff) value = -4.48

Looking up S65 (scFv, V domains shown, also called clone 65) VH: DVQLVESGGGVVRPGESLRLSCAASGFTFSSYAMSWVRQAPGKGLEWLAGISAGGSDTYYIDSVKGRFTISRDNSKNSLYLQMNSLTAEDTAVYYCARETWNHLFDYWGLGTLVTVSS VL: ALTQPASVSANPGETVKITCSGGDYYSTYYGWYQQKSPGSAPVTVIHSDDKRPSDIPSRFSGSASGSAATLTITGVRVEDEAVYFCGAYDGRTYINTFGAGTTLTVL , I see its log10(koff) listed as -3.84

Documented log10(koff) of S30 (scFv, V domains shown, also called clone 30) VH: DVQLVESGGGVVRPGESLRLSCEASGFTFSSDAMSWVRQAPGKGLEWVSGISSGSSTYYGGSVKGRFTISRDNSKNTLYLQMNSLTAEDTAVYYCARETWNHLFDYWGLGTLVTVSS VL: ALTQPASVSASPGETVEITCSGGSDSSYYYGWYQQKSPGSAPVTVIYSDNKRPSNIPSRFSGSASGSTATLTITGVRVEDEAVYYCGGYDYSTYTNPFGAGTTLTVL : -3.88

In plain terms, S70 (scFv, V domains shown, also called clone 70) VH: DVQLVESGGGVVRPGESLRLSCAASGFTFSSYAMSWVRQAPGKGLEWLAGISAGGSDAYYIDSVKGRFTISRDNSKNSLYLQMNSLTAEDTAVYYCARETWNHLFDYWGLGTLVTVSS VL: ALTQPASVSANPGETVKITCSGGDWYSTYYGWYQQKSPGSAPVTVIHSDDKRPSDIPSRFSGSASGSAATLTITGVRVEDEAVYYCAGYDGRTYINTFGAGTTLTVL has a documented log10(koff) of -3.65

get_value(item= S76 (scFv, V domains shown, also called clone 76) VH: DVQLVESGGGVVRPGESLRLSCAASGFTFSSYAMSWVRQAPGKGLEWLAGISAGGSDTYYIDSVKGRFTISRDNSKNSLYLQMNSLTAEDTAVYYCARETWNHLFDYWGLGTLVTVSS VL: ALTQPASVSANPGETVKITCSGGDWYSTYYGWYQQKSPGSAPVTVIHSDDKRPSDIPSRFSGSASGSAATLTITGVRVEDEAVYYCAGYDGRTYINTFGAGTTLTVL , readout=log10(koff)) returns -3.85

S17 (scFv, V domains shown, also called clone 17) VH: DVQLVESGGAVVRPGESLRLSCAASGFTFSSYAMSWVRQAPGKGLEWLAGISAGGSDTYYIDSVKGRFTISRDNSENSLYLQMNSLTAEDTAVYYCARETWNHLFDYWGLGTLVTVSS VL: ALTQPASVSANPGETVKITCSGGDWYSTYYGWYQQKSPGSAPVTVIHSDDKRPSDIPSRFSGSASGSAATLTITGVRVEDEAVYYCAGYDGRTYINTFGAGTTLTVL yielded log10(koff) of -3.91

S209 (scFv, V domains shown) VH: DVQLVESGGAVVRPGESLRLSCKASGFTFTNFAMSWVRQAPGEGLEWVSGISGSDDTTYYADSVKGRFTISRDNSESTLYLQMNSLRAEDTAVYYCVKDSTVSWNTFFDYWGLGTLVTVSS VL: ALTQPASVSANLGGTVKITCSGGYGSDDGSSSYYGWYQQKSPGSAPVILIYWDDKRPSDIPSRFSGSTSGSTTTLTITGVQAEDEAVYFCGTYDTSSGAIFGAGTTLTVL yielded log10(koff) of -3.18

Entry S71 (scFv, V domains shown, also called clone 71) VH: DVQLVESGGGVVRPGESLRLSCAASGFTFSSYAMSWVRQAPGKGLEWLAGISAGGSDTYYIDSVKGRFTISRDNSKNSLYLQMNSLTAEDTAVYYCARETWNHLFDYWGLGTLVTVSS VL: ALTQPASVSANPGETVKITCSGGGYYSTYYGWYQQKSPGSAPVTVIHSDDKRPSDIPSRFSGSASGSAATLTITGVRVEDEAVYYCAGYDARTYINTFGAGTTLTVL — recorded log10(koff) = -3.47
